Molecular target: human bradykinin B2 receptor (hB2R) (Homo sapiens, UniProt P30411)
Sequence (P30411 whole entry): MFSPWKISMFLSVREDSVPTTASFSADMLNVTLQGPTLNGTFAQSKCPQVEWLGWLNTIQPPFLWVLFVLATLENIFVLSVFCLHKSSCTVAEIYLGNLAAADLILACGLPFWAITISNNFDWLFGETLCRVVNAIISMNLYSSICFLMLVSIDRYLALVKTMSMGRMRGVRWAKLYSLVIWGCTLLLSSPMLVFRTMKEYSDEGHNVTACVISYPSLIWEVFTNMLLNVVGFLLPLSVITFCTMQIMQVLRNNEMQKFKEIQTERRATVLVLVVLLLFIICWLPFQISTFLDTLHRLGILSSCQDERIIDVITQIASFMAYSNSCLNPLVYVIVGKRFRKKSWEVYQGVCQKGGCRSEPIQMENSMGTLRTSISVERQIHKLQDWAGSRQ
Assay: cell-based human bradykinin B2 receptor calcium mobilization (hB2R-CaM) assay
Conditions: HTS041C cells, bradykinin at EC80, calcium mobilization; read-out: IC50-value towards human bradykinin B2 receptor (hB2R)
Value Kind: IC50

>>> print(df.to_string())
                                    compound  value_kind  value_observed
 0  Cc1cc(-c2ccnn2C)c2cccc(OCc3c(Cl)cc(F)cc3[C@H](C)NC(=O)[C@@H](C)O)c2n1 [Compound 192]        IC50         ≤ 50 nM
 1  CCn1ncnc1-c1cc(C)nc2c(OCc3c(Cl)cc(F)cc3[C@H](C)NC(=O)c3coc(C)n3)cccc12 [Compound 142]        IC50         ≤ 50 nM
 2  Cc1cc(-n2cc(F)cn2)c2cccc(OCc3c(Cl)cc(F)cc3[C@H](C)NC(=O)C3COC3)c2n1 [Compound 57]        IC50         ≤ 50 nM
 3  Cc1cc(-n2cc(F)cn2)c2cccc(OCc3c(Cl)cc(F)cc3[C@H](C)NC(=O)[C@@H]3CCC(=O)N3)c2n1 [Compound 114]        IC50    51 to 250 nM
 4  Cc1cc(-n2ncnc2C)c2cccc(OCc3c(Cl)cc(F)cc3[C@H](C)NC(=O)c3coc(C)n3)c2n1 [Compound 156]        IC50         ≤ 50 nM
 5  Cc1cc(-n2cc(F)cn2)c2cccc(OCc3c(Cl)cc(F)cc3[C@H](C)NC(=O)COC(F)(F)F)c2n1 [Compound 121]        IC50         ≤ 50 nM
 6  Cc1cc(-n2cc(F)cn2)c2cccc(OCc3c(Cl)cc(F)cc3[C@H](C)NC(=O)[C@@H](C)OC(F)F)c2n1 [Compound 93]        IC50    51 to 250 nM
 7  Cc1cc(-c2ncnn2C)c2cccc(OCc3c(Cl)cc(F)cc3[C@H](CO)NC(=O)COC(F)F)c2n1 [Compound 190]        IC50         ≤ 50 nM
 8  Cc1cc(-n2cc(F)cn2)c2cccc(OCc3c(Cl)cc(F)cc3[C@H](C)NC(=O)c3cccnc3)c2n1 [Compound 124]        IC50         ≤ 50 nM
 9  Cc1cc(-c2ncc(C#N)n2C)c2cccc(OCc3c(Cl)cc(F)cc3[C@H](C)NC(=O)CC(F)(F)F)c2n1 [Compound 206]        IC50         ≤ 50 nM
10  Cc1cc(-n2cc(F)cn2)c2cccc(OCc3c(Cl)cc(F)cc3[C@H](C)NC(=O)[C@](C)(O)C(F)(F)F)c2n1 [Compound 53]        IC50  251 to 1000 nM
11  Cc1cc(-c2ncnn2C)c2cccc(OCc3c(Cl)cc(F)cc3[C@H](C)NC(=O)c3ccncc3)c2n1 [Compound 163]        IC50         ≤ 50 nM

====

Assay: metabolic stability assay in rat liver microsomes
Type: in vitro ADME
Settings: pH 7.4; male Wistar rat liver microsomes, 0.5 mg protein/mL, 1 μM test compound, NADPH
Mark 0 for microsomal CLint at 1 μM values under 100 µL/min/mg, and 1 for everything at or above.

Compound	Label Class
Cc1cc(-n2cc(F)cn2)c2cccc(OCc3c(Cl)cccc3C(C)NC(=O)[C@@H](C)O)c2n1 (some centres unmarked) [compound 173, reference compound]	1
Cc1cc(-n2cc(F)cn2)c2cccc(OCc3c(Cl)cncc3C(C)NC(=O)[C@@H](C)O)c2n1 (some centres unmarked) [compound 170]	1
Cc1cc(-c2ncnn2C)c2cccc(OCc3c(Cl)cccc3C(C)NC(=O)COC(F)F)c2n1 (centres unmarked) [compound 174, reference compound]	1
[2H][C@@](C)(NC(=O)COC(F)F)c1cc(F)cc(Cl)c1COc1cccc2c(-c3ncnn3C)cc(C)nc12 [Compound 11]	0
Cc1cc(-n2cc(F)cn2)c2cccc(OCc3c(Cl)cc(F)cc3[C@H](C)NC(=O)[C@@H](C)O)c2n1 [Compound 1]	0
Cc1cc(-n2cc(F)cn2)c2cccc(OCc3c(Cl)cccc3C(C)NC(=O)[C@H](C)O)c2n1 (some centres unmarked) [compound 172, reference compound]	0
Cc1cc(-n2cc(F)cn2)c2cccc(OCc3c(Cl)cc(F)cc3[C@H](C)NC(=O)[C@H](C)O)c2n1 [Compound 13]	0
Cc1cc(-n2cc(F)cn2)c2cccc(OCc3c(Cl)cncc3C(C)NC(=O)[C@H](C)O)c2n1 (some centres unmarked) [compound 169]	1

Measured values drawn from patent US11820756B2 for this set.
